Target: SARS-CoV-2 spike protein on pseudotyped lentivirus (Wuhan Reference Pseudovirus) (SARS-CoV-2, UniProt P0DTC2 14-1273)
Test: cell-based or functional assay
endpoint: Pseudovirus inhibition IC50 [Cont. 1]

INSERT INTO results (binder, result) VALUES
  ('PP1132 MBP-4B0F-PAPA-R2c-F6-H6 (VHH, Form: Heptamer) VHH: QVQLVESGGGLVQPGGSLRLSCAASGRILAANIVHWYRQAPGKEREGVAGITTGGSNYYSDSVKGRFTISRDNAKNTVYLQMNSLKPEDTAVYYCNALGLGSASGSYESWGQGTQVTVSS', '5.66 nM');

Now for a further binder.
Lookup result for PP1158 MPB-scTRP-PAPA-R2d-D3-H6 (VHH, Form: Trimer) VHH: QVQLVESGGGLVQPGGSLRLSCAASGHIFSINNAAWVRQAPGKSREGVATIHSGGGTYYSDSVKGRFTISRDNAKNTVYLQMNSLKPEDTAVYYCNAEVSTGAGSRGRVSDVYWGQGTQVTVSS ; measured Pseudovirus inhibition IC50 [Cont. 1]: 123 nM
